Biological target: GDP-bound KRAS wild-type protein (Homo sapiens, UniProt P01116)
Sequence (P01116 whole entry): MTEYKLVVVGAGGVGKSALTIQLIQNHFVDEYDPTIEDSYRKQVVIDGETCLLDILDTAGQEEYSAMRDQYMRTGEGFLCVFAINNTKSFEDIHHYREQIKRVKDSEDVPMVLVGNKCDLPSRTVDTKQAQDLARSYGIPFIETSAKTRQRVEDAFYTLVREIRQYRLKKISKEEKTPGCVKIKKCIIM
Experiment: Binding to KRAS by surface plasmon resonance (SPR), Single Cycle Kinetics
Conditions: SPR, Single Cycle Kinetics, GDP-bound KRAS wild-type protein; read-out: KRAS KD
Measurement Name: Kd (pM)
Please state the figure in pM; there is no need to write the unit.

[[record]]
molecule = "CCO[C@H](C)[C@@H]1NC(=O)[C@H](CC(C)C)N(C)C(=O)C[C@@H](C(=O)N(C)C)N(C)C(=O)[C@H](C2CCCC2)N(C)C(=O)C2(CC(C)(C)C2)NC(=O)[C@@H]2C[C@H](C)CN2C(=O)[C@H](CCc2ccc(C(F)(F)F)c(OC)c2)NC(=O)CN(C)C(=O)[C@H](Cc2ccc(C)cc2)N2CC/C=C\\C[C@@H](C2=O)N(C)C(=O)[C@@H]2CCCN2C1=O"
measure_unit = "pM"
measurement = 970


Determine its reported Kd: CCO[C@@H]1C[C@H]2C(=O)NC3(CCC3)C(=O)N(C)[C@@H](C3CCCC3)C(=O)N(C)[C@H](C(=O)N(C)C)CC(=O)N(C)[C@@H](Cc3ccc(Cl)cc3)C(=O)N[C@@H]([C@@H](C)CC)C(=O)N(C)CC(=O)N(C)[C@H]3CCCCCN(C3=O)[C@@H](Cc3ccc(C(F)(F)F)cc3)C(=O)N(C)CC(=O)N[C@@H](CCc3cc(F)c(C(F)(F)F)c(F)c3)C(=O)N2C1
2000

Supply recorded Kd for CCO[C@@H]1C[C@H]2C(=O)NC3(CC(C)(C)C3)C(=O)N(C)[C@@H](C3CCCC3)C(=O)N(C)[C@H](C(=O)N(C)CC)CC(=O)N(C)[C@@H](CC)C(=O)N[C@@H]([C@@H](C)CC)C(=O)N(C)CC(=O)N(C)[C@H]3C/C=C\CCN(C3=O)[C@@H](Cc3ccc(C)cc3)C(=O)N(C)CC(=O)N[C@@H](CCc3cc(F)c(C(F)(F)F)c(F)c3)C(=O)N2C1 here.
120

----------
# pKd per record follows
Biological target: GDP-bound KRAS wild-type protein (Homo sapiens)
Experiment: Binding to KRAS by surface plasmon resonance (SPR), Single Cycle Kinetics
Conditions: SPR Single Cycle Kinetics, GDP-bound KRAS wild-type protein, 1:1 binding model; read-out: KRAS KD
*1 amine or outer side, *2 acyl side, *3 side chain or, on linkers, in order; H or OH if unused. Where a SMILES comes first, the peptide text is derived from it. Bridges are numbered along the chain shown (N, C = ends). [ ]: non-standard residue; d: D form. The star is where a group is joined. hPhe(3-Cl-4-CF3) = N[C@@H](CCc1ccc(C(F)(F)F)c(Cl)c1)C(=O)O; NPrPhe(4-CF3) = CCCN[C@@H](Cc1ccc(C(F)(F)F)cc1)C(=O)O; NMeGly(cPent) = CN[C@H](C(=O)O)C1CCCC1; Hyp = O=C(O)[C@@H]1C[C@@H](O)CN1; NMeD = CN[C@@H](CC(=O)O)C(=O)O; NMeL = CN[C@@H](CC(C)C)C(=O)O; X50 = O=C(CN(CCF)[*:1])[*:2]; Morpholide = C1CN(*)CCO1; NMeA = CN[C@@H](C)C(=O)O; Ac5c = NC1(C(=O)O)CCCC1; Aze = O=C(O)[C@@H]1CCN1; Ac4c = NC1(C(=O)O)CCC1; Sar = CNCC(=O)O
The quantity pKd is defined as the negative base-10 logarithm of the molar concentration.

Look over these answered cases.
[[record]]
compound = "CC[C@H](C)[C@@H]1NC(=O)[C@H](COC)N(C)C(=O)C[C@@H](C(=O)N2CCCCC2)N(C)C(=O)[C@H](C2CCCC2)N(C)C(=O)C2(CC(C)(C)C2)NC(=O)[C@@H]2C[C@@H](OC3CCCC3)CN2C(=O)[C@H](CCc2cc(F)c(C(F)(F)F)c(F)c2)NC(=O)CN(C)C(=O)[C@H](Cc2ccc(C(F)(F)F)cc2)N2CC/C=C\\C[C@@H](C2=O)N(C)C(=O)CN(C)C1=O [PP2665]"
measurement_name = "pKd"
measurement = 9.25

[[record]]
compound = "CC[C@H](C)[C@@H]1NC(=O)[C@H](COC)N(C)C(=O)C[C@@H](C(=O)N(C)C)N(C)C(=O)[C@H](C2CCCCC2)N(C)C(=O)C2(CC(C)(C)C2)NC(=O)[C@@H]2C[C@@H](OC(C)C)CN2C(=O)[C@H](CCc2cc(F)c(C(F)(F)F)c(F)c2)NC(=O)CN(C)C(=O)[C@H](Cc2ccc(C(F)(F)F)cc2)N2CC/C=C\\C[C@@H](C2=O)N(C)C(=O)CN(C)C1=O [PP2654]"
measurement_name = "pKd"
measurement = 9.92

[[record]]
compound = "CCCN1C(=O)CN(C)C(=O)CN(CCF)C(=O)[C@H]([C@@H](C)CC)NC(=O)[C@H](CC(C)C)N(C)C(=O)C[C@@H](C(=O)N2CCOCC2)N(C)C(=O)[C@H](C2CCCC2)N(C)C(=O)C2(CCCC2)NC(=O)[C@@H]2CCCN2C(=O)[C@H](CCc2ccc(C(F)(F)F)c(Cl)c2)NC(=O)CN(C)C(=O)[C@@H]1Cc1ccc(C(F)(F)F)cc1 [PP0751] ([NMeL]I[X50][Sar][NPrPhe(4-CF3)][Sar][hPhe(3-Cl-4-CF3)]P[Ac5c][NMeGly(cPent)][NMeD]-Morpholide; lactam N-11)"
measurement_name = "pKd"
measurement = 9.28

[[record]]
compound = "CC[C@H](C)[C@@H]1NC(=O)[C@H](CC(C)C)N(C)C(=O)C[C@@H](C(=O)N2CCCC2)N(C)C(=O)[C@H](C2CCCC2)N(C)C(=O)C2(CCCC2)NC(=O)[C@@H]2CCCN2C(=O)[C@H](CCc2cc(F)c(C(F)(F)F)c(F)c2)NC(=O)CN(C)C(=O)[C@H](Cc2ccc(C(F)(F)F)cc2)N2CCCC[C@@H](C2=O)N(C)C(=O)CN(C)C1=O [PP0571]"
measurement_name = "pKd"
measurement = 10.30


Shift focus to the following entry.
Return pKd (reported value) for this compound: CCCN1C(=O)[C@@H]2CCN2C(=O)[C@H](C)N(C)C(=O)[C@H]([C@@H](C)CC)NC(=O)[C@H](CC(C)C)N(C)C(=O)C[C@@H](C(=O)N2CCOCC2)N(C)C(=O)[C@H](C2CCCC2)N(C)C(=O)C2(CCC2)NC(=O)[C@@H]2C[C@@H](OCC)CN2C(=O)[C@H](CCc2ccc(C(F)(F)F)c(Cl)c2)NC(=O)CN(C)C(=O)[C@@H]1Cc1ccc(C(F)(F)F)cc1 [PP0406] ([NMeL]I[NMeA][Aze][NPrPhe(4-CF3)][Sar][hPhe(3-Cl-4-CF3)][Hyp](Et)[Ac4c][NMeGly(cPent)][NMeD]-Morpholide; lactam N-11)
10.38
